System: rat vas deferens
Measurement description: Effect on Rat Isolated Vas Deferens
Format: cell-based
Conditions: rat isolated vas deferens, cumulative dose-response, 31° C.
Each entry below carries its reported EC50.
Metric: EC50 (µM)

INSERT INTO measurements (molecule, observed_value) VALUES
  ('CCNCC(O)C1=CC2(CCCC2)c2ccccc21 (stereo not drawn)', 1.5),
  ('NC[C@H](O)c1ccc(O)c(O)c1 [No. 1, noradrenaline, reference compound]', 30),
  ('NCC(O)C1=CC2(CCCCC2)c2ccccc21 (stereo not drawn)', 15);

====

Each entry below carries its reported minimal effective concentration.
Tested on: rat vas deferens
Measurement description: Effect on Rat Isolated Vas Deferens
Format: cell-based
Conditions: Rattus norvegicus, rat isolated vas deferens, cumulative dose-response, 31° C.; read-out: threshold conc.
Text: Effect on Rat Isolated Vas Deferens Male albino rats weighing 250-350 g were anaesthetized with diethyl ether and then decapitated. The vas deferens was removed, freed from mesenteric attachments and then suspended in Kreb's bicarbonate solution (Hukovic, 1961). Threads were attached to both ends of the organ. The distal part was tied to a fixed pin in the organ bath and the proximal part to a force displacement transducer connected to a recording system. […]
Metric: minimal effective concentration

INSERT INTO assay_data (compound, metric, observed_value) VALUES
  ('NCC(O)C1=CC2(CCCC2)c2ccccc21 (stereo not shown) [No. 2]', 'minimal effective concentration', '0.1 µM'),
  ('CNCC(O)C1=CC2(CCCC2)c2ccccc21 (racemic) [No. 3]', 'minimal effective concentration', '0.03 µM'),
  ('CC1(C)C=C(C(O)CN)c2ccccc21 (stereo not shown) [No. 8]', 'minimal effective concentration', '0.3 µM'),
  ('CCNCC(O)C1=CC2(CCCC2)c2ccccc21 (stereo not shown) [No. 4]', 'minimal effective concentration', '0.5 µM'),
  ('NC[C@H](O)c1ccc(O)c(O)c1 [No. 1, noradrenaline, reference compound]', 'minimal effective concentration', '1 µM'),
  ('NCC(O)C1=CC2(CCCCC2)c2ccccc21 (stereo not shown) [No. 9]', 'minimal effective concentration', '3 µM'),
  ('COc1ccc2c(c1)C(C(O)CN)=CC21CCCC1 (stereo not shown) [No. 10]', 'minimal effective concentration', '5 µM');
